For each of the compounds below, state its helicity.
# protocolDescription: circular dichroism
# testSettings: PBS (10 mM phosphate, 137 mM NaCl, 2.7 mM KCl); pH 7.4; rt °C; 100 uM
Bridge positions count the residues as written; N and C are the ends. Square brackets hold non-standard residues; d marks the D form. Triazole bridges read from a SMILES are 1,4-linked. Peptide text beside a SMILES is read from it. Lys(N3) = [N-]=[N+]=NCCCC[C@H](N)C(=O)O; Pra = C#CC[C@H](N)C(=O)O; Ahx = NCCCCCC(=O)O
The reply should contain only the number, in %.

# input Entry CC(C)[C@@H]1NC(=O)[C@H](Cc2ccccc2)NC(=O)[C@@H](NC(=O)[C@@H]2CCCCn3cc(nn3)C[C@H](NC(=O)CCCCCNC(=O)[C@@H](N)CCCCN)C(=O)N[C@@H](Cc3c[nH]c4ccccc34)C(=O)N[C@@H](CCCNC(=N)N)C(=O)N[C@@H](CCC(N)=O)C(=O)N2)Cc2cn(nn2)CCCC[C@@H](C(=O)N[C@@H](Cc2ccc(O)cc2)C(N)=O)NC(=O)[C@H](CC(=O)O)NC1=O [SBL-PX1-206] (H-K[Ahx][Pra]WRQ[Lys(N3)][Pra]FVD[Lys(N3)]Y-NH2; triazole 3-7, 8-12 (inferred)) has what helicity?
# output 44

# input Fill blank: measured helicity of the compound CC(=O)N[C@@H]1Cc2cn(nn2)CCCC[C@@H](C(=O)N[C@@H](C)C(=O)N[C@@H](Cc2ccccc2)C(=O)N[C@H](C(=O)N[C@@H](CC(=O)O)C(=O)N[C@@H](CO)C(=O)N[C@@H](Cc2ccc(O)cc2)C(N)=O)C(C)C)NC(=O)[C@H](CCC(N)=O)NC(=O)[C@H](CCCNC(=N)N)NC(=O)[C@H](Cc2c[nH]c3ccccc23)NC1=O is ____.
# output 18

###

# protocolDescription: circular dichroism
# testSettings: PBS (10 mM phosphate, 137 mM NaCl, 2.7 mM KCl); pH 7.4; rt °C; 100 uM
Bridge positions count the residues as written; N and C are the ends. Square brackets hold non-standard residues; d marks the D form. Triazole bridges read from a SMILES are 1,4-linked. Peptide text beside a SMILES is read from it. Lys(N3) = [N-]=[N+]=NCCCC[C@H](N)C(=O)O; Orn(N3) = [N-]=[N+]=NCCC[C@H](N)C(=O)O; Hpra = C#CCC[C@H](N)C(=O)O; Pra = C#CC[C@H](N)C(=O)O
valueKind: helicity (%)
The reply should contain only the number, in %.

# input Item CC(=O)N[C@@H](CO)C(=O)N[C@@H](Cc1c[nH]c2ccccc12)C(=O)N[C@@H](CCCNC(=N)N)C(=O)N[C@@H](CCC(N)=O)C(=O)N[C@@H](C)C(=O)N[C@@H](C)C(=O)N[C@H]1Cc2cn(nn2)CCC[C@@H](C(N)=O)NC(=O)[C@H](CO)NC(=O)[C@H](CC(=O)O)NC(=O)[C@H](C(C)C)NC1=O (Ac-SWRQAA[Pra]VDS[Orn(N3)]-NH2; triazole 7-11) has what recorded helicity?
# output 6

# input What does the record list as helicity for CC(=O)N[C@@H](CO)C(=O)N[C@@H](Cc1c[nH]c2ccccc12)C(=O)N[C@@H](CCCNC(=N)N)C(=O)N[C@@H](CCC(N)=O)C(=O)N[C@@H](C)C(=O)N[C@H]1Cc2cn(nn2)CCCC[C@@H](C(=O)N[C@@H](Cc2ccc(O)cc2)C(N)=O)NC(=O)[C@H](CC(=O)O)NC(=O)[C@H](C(C)C)NC(=O)[C@H](Cc2ccccc2)NC1=O ?
# output 56

# input Which helicity reading was recorded for the compound CC(=O)N[C@H]1CCc2cn(nn2)CCCC[C@@H](C(=O)N[C@@H](C)C(=O)N[C@@H](Cc2ccccc2)C(=O)N[C@H](C(=O)N[C@@H](CC(=O)O)C(=O)N[C@@H](CO)C(=O)N[C@@H](Cc2ccc(O)cc2)C(N)=O)C(C)C)NC(=O)[C@H](CCC(N)=O)NC(=O)[C@H](CCCNC(=N)N)NC(=O)[C@H](Cc2c[nH]c3ccccc23)NC1=O (Ac-[Hpra]WRQ[Lys(N3)]AFVDSY-NH2; triazole 1-5) ?
# output 26

###

# studySystem: Panx1 channels (Homo sapiens)
# Construct: host or cells: EA.hy926 human endothelial cells
# Sequence (Q96RD7 whole entry): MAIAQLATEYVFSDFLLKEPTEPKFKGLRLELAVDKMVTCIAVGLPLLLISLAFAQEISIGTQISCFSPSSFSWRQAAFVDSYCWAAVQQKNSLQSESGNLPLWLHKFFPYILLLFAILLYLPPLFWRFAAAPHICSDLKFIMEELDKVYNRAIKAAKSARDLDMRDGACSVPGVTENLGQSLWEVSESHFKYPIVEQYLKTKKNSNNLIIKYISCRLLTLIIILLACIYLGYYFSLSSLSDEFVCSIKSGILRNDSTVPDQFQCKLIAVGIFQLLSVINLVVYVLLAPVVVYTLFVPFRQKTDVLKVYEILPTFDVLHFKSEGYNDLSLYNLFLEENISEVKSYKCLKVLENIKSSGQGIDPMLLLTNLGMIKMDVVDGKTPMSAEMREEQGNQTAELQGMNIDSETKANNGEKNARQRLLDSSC
# protocolDescription: HOS-induced ATP release assay in EA.hy926 endothelial cells
# Type: cell-based
# testSettings: EA.hy 926, read-out: % ATP release inhibition at 100µM (in EA.hy926 cells)
Bridge positions count the residues as written; N and C are the ends. Square brackets hold non-standard residues; d marks the D form. Triazole bridges read from a SMILES are 1,4-linked. Peptide text beside a SMILES is read from it. Lys(N3) = [N-]=[N+]=NCCCC[C@H](N)C(=O)O; Pra = C#CC[C@H](N)C(=O)O; Ahx = NCCCCCC(=O)O
valueKind: inhibition at 100 µM (%)
# unit: % | format: bare number

# input inhibition at 100 µM for CC(C)[C@H](NC(=O)[C@H](Cc1ccccc1)NC(=O)[C@H](C)NC(=O)[C@H](C)NC(=O)[C@H](CCC(N)=O)NC(=O)[C@H](CCCNC(=N)N)NC(=O)[C@@H](N)Cc1c[nH]c2ccccc12)C(=O)N[C@@H](CC(=O)O)C(=O)N[C@@H](CO)C(=O)N[C@@H](Cc1ccc(O)cc1)C(=O)O [^10Panx1, WRQAAFVDSY] (H-WRQAAFVDSY-OH) ?
# output 24

# input // inhibition at 100 µM lookup, key: CC(C)[C@@H]1NC(=O)[C@H](Cc2ccccc2)NC(=O)[C@@H](NC(=O)[C@@H]2CCCCn3cc(nn3)C[C@H](NC(=O)CCCCCNC(=O)[C@@H](N)CCCCN)C(=O)N[C@@H](Cc3c[nH]c4ccccc34)C(=O)N[C@@H](CCCNC(=N)N)C(=O)N[C@@H](CCC(N)=O)C(=O)N2)Cc2cn(nn2)CCCC[C@@H](C(=O)N[C@@H](Cc2ccc(O)cc2)C(N)=O)NC(=O)[C@H](CC(=O)O)NC1=O [SBL-PX1-206] (H-K[Ahx][Pra]WRQ[Lys(N3)][Pra]FVD[Lys(N3)]Y-NH2; triazole 3-7, 8-12 (inferred))
# output 15

# input Form field: reported inhibition at 100 µM of CC(=O)N[C@H]1Cc2cn(nn2)CCCC[C@@H](C(=O)N[C@@H](C)C(=O)N[C@@H](Cc2ccccc2)C(=O)N[C@H](C(=O)N[C@@H](CC(=O)O)C(=O)N[C@@H](CO)C(=O)N[C@@H](Cc2ccc(O)cc2)C(N)=O)C(C)C)NC(=O)[C@H](CCC(N)=O)NC(=O)[C@H](CCCNC(=N)N)NC(=O)[C@H](Cc2c[nH]c3ccccc23)NC1=O
# output 41

# input For the compound CC(=O)N[C@@H](CO)C(=O)N[C@@H](Cc1c[nH]c2ccccc12)C(=O)N[C@@H](CCCNC(=N)N)C(=O)N[C@@H](CCC(N)=O)C(=O)N[C@@H](C)C(=O)N[C@H]1Cc2cn(nn2)CCCC[C@@H](C(=O)N[C@@H](Cc2ccc(O)cc2)C(N)=O)NC(=O)[C@H](CC(=O)O)NC(=O)[C@H](C(C)C)NC(=O)[C@H](Cc2ccccc2)NC1=O , what inhibition at 100 µM is on record?
# output 26

###

Record form. Attribute: helicity. Fill in for each entry.
# protocolDescription: circular dichroism
# testSettings: PBS (10 mM phosphate, 137 mM NaCl, 2.7 mM KCl); pH 7.4; rt °C; 100 uM
Bridge positions count the residues as written; N and C are the ends. Square brackets hold non-standard residues; d marks the D form. Triazole bridges read from a SMILES are 1,4-linked. Peptide text beside a SMILES is read from it. Lys(N3) = [N-]=[N+]=NCCCC[C@H](N)C(=O)O; Hpra = C#CCC[C@H](N)C(=O)O; Pra = C#CC[C@H](N)C(=O)O

# input Item CC(=O)N[C@@H](CO)C(=O)N[C@@H](Cc1c[nH]c2ccccc12)C(=O)N[C@@H](CCCNC(=N)N)C(=O)N[C@@H](CCC(N)=O)C(=O)N[C@@H](C)C(=O)N[C@H]1CCc2cn(nn2)CCCC[C@@H](C(=O)N[C@@H](Cc2ccc(O)cc2)C(N)=O)NC(=O)[C@H](CC(=O)O)NC(=O)[C@H](C(C)C)NC(=O)[C@H](Cc2ccccc2)NC1=O (Ac-SWRQA[Hpra]FVD[Lys(N3)]Y-NH2; triazole 6-10) has what recorded helicity?
# output 28%

# input Param item = CC(=O)N[C@@H](CO)C(=O)N[C@@H](Cc1c[nH]c2ccccc12)C(=O)N[C@@H](CCCNC(=N)N)C(=O)N[C@@H](CCC(N)=O)C(=O)N[C@@H](C)C(=O)N[C@H]1CCCCn2cc(nn2)C[C@@H](C(=O)N[C@@H](Cc2ccc(O)cc2)C(N)=O)NC(=O)[C@H](CC(=O)O)NC(=O)[C@H](C(C)C)NC(=O)[C@H](Cc2ccccc2)NC1=O (Ac-SWRQA[Lys(N3)]FVD[Pra]Y-NH2; triazole 6-10) ; retrieve measured helicity.
# output 32%

# input Give its helicity value. Item: CC(=O)N[C@H]1Cc2cn(nn2)CCCC[C@@H](C(=O)N[C@@H](C)C(=O)N[C@@H](Cc2ccccc2)C(=O)N[C@H](C(=O)N[C@@H](CC(=O)O)C(=O)N[C@@H](CO)C(=O)N[C@@H](Cc2ccc(O)cc2)C(N)=O)C(C)C)NC(=O)[C@H](CCC(N)=O)NC(=O)[C@H](CCCNC(=N)N)NC(=O)[C@H](Cc2c[nH]c3ccccc23)NC1=O
# output 41%
